Target: recombinant human transglutaminase 2 (Homo sapiens)
Experiment: Transglutaminase assay: incorporation of dansylcadaverine into dimethylcasein (DCC-assay)
Assay type: biochemical
Settings: recombinant human TG2 10 nM, dansylcadaverine/dimethylcasein; read-out: IC50 TG2
metric: IC50

INSERT INTO results (molecule, result) VALUES
  ('CCNC(=O)C(=O)CC[C@H](NC(=O)c1cnc(C(C)C)o1)C(=O)Nc1cccn(CC(=O)NC23CCC(C2)C3)c1=O [Compound I-90]', '< 0.15 µM'),
  ('CCNC(=O)C(=O)CC[C@H](NC(=O)c1cc(Br)cs1)C(=O)Nc1cccn(CC(=O)NC2C3CC4CC(C3)CC2C4)c1=O (some centres unmarked) [Compound I-51]', '< 0.15 µM'),
  ('CCNC(=O)C(=O)CC[C@H](NC(=O)c1cc2ccc(N(C)C)cc2o1)C(=O)Nc1cccn(CC(=O)NC23CC(C2)C3)c1=O [Compound I-109]', '0.15 to 0.6 µM'),
  ('CCNC(=O)C(=O)CC[C@H](NC(=O)c1cncn1C)C(=O)Nc1cccn(CC(=O)N(C)C23CC4CC(CC(C4)C2)C3)c1=O [Compound I-3]', '0.6 to 3.5 µM');

Per the records, this molecule ( CCNC(=O)C(=O)CC[C@H](NC(=O)c1cc(Br)c(Br)s1)C(=O)Nc1cccn(CC(=O)NC2C3CC4CC(C3)CC2C4)c1=O (some centres unmarked) [Compound I-53] ) has IC50 equal to < 0.15 µM

---

Assay: Caco-2 permeability assay (CacoReady kit)
Format: in vitro ADME
Settings: human
Some compounds, each annotated with its measured Papp.

The measured Papp associated with CCNC(=O)C(=O)CC[C@H](NC(=O)c1oc2ccccc2c1C)C(=O)Nc1cccn(CC(=O)N[C@@H]2C[C@@H]3CC[C@H]2C3)c1=O [Compound I-68] reads 1 to 10 ×10⁻⁶ cm/s

Reported Papp for CCNC(=O)C(=O)CC[C@H](NC(=O)c1nccc2cnccc12)C(=O)Nc1cccn(CC(=O)NC23CCC(C2)C3)c1=O [Compound I-107] was < 1 ×10⁻⁶ cm/s

Reported Papp of CCNC(=O)C(=O)CC[C@H](NC(=O)c1cncn1C)C(=O)Nc1cccn(CC(=O)NC23CC4CC(CC(Br)(C4)C2)C3)c1=O [Compound I-10] : < 1 ×10⁻⁶ cm/s

Given item CCNC(=O)C(=O)CC[C@H](NC(=O)c1cn(CC(C)C)cn1)C(=O)Nc1cccn(CC(=O)NC23CC4CC(CC(CC)(C4)C2)C3)c1=O [Compound I-18] , the value recorded as its Papp is < 1 ×10⁻⁶ cm/s

The measured Papp associated with CCNC(=O)C(=O)CC[C@H](NC(=O)C1CN2CCC1CC2)C(=O)Nc1cccn(CC(=O)NC2(C#N)C3CC4CC(C3)CC2C4)c1=O (stereo partly drawn) [Compound I-63] reads < 1 ×10⁻⁶ cm/s

Form field Papp, entry CCNC(=O)C(=O)CC[C@H](NC(=O)c1c(C)nc2sccn12)C(=O)Nc1cccn(CC(=O)N(C)C2C3CC4CC(C3)CC2C4)c1=O (stereo partly drawn) [Compound I-67] : < 1 ×10⁻⁶ cm/s

---

Assay: Caco-2 permeability assay (CacoReady kit)
Assay type: in vitro ADME
Conditions: human
List of Papp values.

Sample records with Papp:
INSERT INTO measurements (compound, metric, result) VALUES
  ('CCNC(=O)C(=O)CC[C@H](NC(=O)C1Cc2ccccc2C1)C(=O)Nc1cccn(CC(=O)NC2C3CC4CC(C3)CC2C4)c1=O (stereo partly drawn) [Compound I-39]', 'Papp', '1 to 10 ×10⁻⁶ cm/s'),
  ('CCNC(=O)C(=O)CC[C@H](NC(=O)c1cn(C)cn1)C(=O)Nc1cccn(CC(=O)NC23CC4CC(CC(CC)(C4)C2)C3)c1=O [Compound I-15]', 'Papp', '< 1 ×10⁻⁶ cm/s');

Proceeding to the next compound to report its Papp.
Record CCNC(=O)C(=O)CC[C@H](NC(=O)c1nc2ccccc2[nH]1)C(=O)Nc1cccn(CC(=O)NC2C3CC4CC(C3)CC2C4)c1=O (stereo partly drawn) [Compound I-38] , field Papp: < 1 ×10⁻⁶ cm/s

---

Measured logD by item
Assay: Log D by shake flask method (octanol / PBS pH 7.4, HPLC)
Format: physicochemical
Details: octanol / PBS pH 7.4, shake flask; read-out: logD

Worked examples, 5 molecules total:
INSERT INTO assay_data (molecule, result) VALUES
  ('CCNC(=O)C(=O)CC[C@H](NC(=O)C1CCc2ccccc2C1)C(=O)Nc1cccn(CC(=O)NC2C3CC4CC2CC(C(=O)N(C)C)(C4)C3)c1=O (stereo partly drawn) [Compound I-93]', '< 1'),
  ('CCNC(=O)C(=O)CC[C@H](NC(=O)c1c[nH]cn1)C(=O)Nc1cccn(CC(=O)NC23CC4CC(CC(C4)C2)C3)c1=O [Compound I-2]', '< 1'),
  ('CCNC(=O)C(=O)CC[C@H](NC(=O)c1cn(C)cn1)C(=O)Nc1cccn(CC(=O)NC23CC4CC(CC(CC)(C4)C2)C3)c1=O [Compound I-15]', '1 to 3'),
  ('CCNC(=O)C(=O)CC[C@H](NC(=O)c1cc2ccccc2o1)C(=O)Nc1cccn(CC(=O)NC2C3CC4CC(C3)CC2C4)c1=O (stereo partly drawn) [Compound I-30]', '3 to 5'),
  ('CCNC(=O)C(=O)CC[C@H](NC(=O)c1cc(Br)c(Cl)s1)C(=O)Nc1cccn(CC(=O)NC2C3CC4CC(C3)CC2C4)c1=O (stereo partly drawn) [Compound I-52]', '3 to 5');

// next item, logD requested
Please fill in: logD reported for CCNC(=O)C(=O)CC[C@H](NC(=O)c1cccnc1)C(=O)Nc1cccn(CC(=O)NC23CC4CC(CC(C4)C2)C3)c1=O [Compound I-121] = < 1

---

Biological target: recombinant human transglutaminase 2 (Homo sapiens, UniProt P21980)
Sequence (P21980 whole entry): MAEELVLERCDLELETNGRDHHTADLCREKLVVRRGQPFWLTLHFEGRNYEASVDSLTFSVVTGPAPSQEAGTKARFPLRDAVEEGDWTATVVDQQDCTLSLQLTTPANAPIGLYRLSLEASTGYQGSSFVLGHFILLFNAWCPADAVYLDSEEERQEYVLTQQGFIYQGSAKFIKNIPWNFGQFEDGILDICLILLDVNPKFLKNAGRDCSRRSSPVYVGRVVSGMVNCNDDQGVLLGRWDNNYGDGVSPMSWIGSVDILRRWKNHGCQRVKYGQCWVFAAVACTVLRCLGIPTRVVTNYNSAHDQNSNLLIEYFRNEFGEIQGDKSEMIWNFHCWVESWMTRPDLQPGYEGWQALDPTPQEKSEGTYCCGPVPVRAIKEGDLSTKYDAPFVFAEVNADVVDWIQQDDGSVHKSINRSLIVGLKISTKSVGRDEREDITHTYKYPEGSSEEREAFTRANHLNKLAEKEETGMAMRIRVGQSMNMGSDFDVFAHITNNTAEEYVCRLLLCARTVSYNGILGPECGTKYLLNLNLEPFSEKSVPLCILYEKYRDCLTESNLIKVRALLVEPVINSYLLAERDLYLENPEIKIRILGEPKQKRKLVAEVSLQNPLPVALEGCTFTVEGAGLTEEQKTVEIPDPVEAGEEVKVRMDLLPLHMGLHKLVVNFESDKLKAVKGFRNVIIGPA
Experiment: Transglutaminase assay: incorporation of dansylcadaverine into dimethylcasein (DCC-assay)
Type: biochemical
Details: recombinant human TG2 10 nM, dansylcadaverine/dimethylcasein; read-out: IC50 TG2
Procedure: To illustrate the advantage of branched alkyl moieties over aromatic moieties, we refer to reference compounds Ref. 2 (ZED1227, U.S. Pat. No. 9,434,763 B2) and Ref. 3 (A8, ZED1047). […] For the determination of potency of inhibitors against tissue transglutaminase, the incorporation of dansylcadaverine into dimethylcasein (Zedira product T036, Lorand et al., Anal Biochem, 1971, 44:221-31) was measured using recombinant human transglutaminase 2 (Zedira Product T022). […]
metric: IC50

Answered examples (3):
INSERT INTO results (molecule, result) VALUES
  ('CCNC(=O)C(=O)CC[C@H](NC(=O)c1cccnc1)C(=O)Nc1cccn(CC(=O)NC23CC4CC(CC(C4)C2)C3)c1=O', '< 150 nM'),
  ('CCNC(=O)C(=O)CC[C@H](NC(=O)c1oc2ccccc2c1C)C(=O)Nc1cccn(CC(=O)N[C@H]2C[C@H]3CC[C@]2(C)C3(C)C)c1=O', '150 to 600 nM'),
  ('CCNC(=O)C(=O)CC[C@H](NC(=O)C1CCc2ccccc2C1)C(=O)Nc1cccn(CC(=O)NC2C3CC4CC2CC(C(=O)N(C)C)(C4)C3)c1=O (stereo partly drawn)', '150 to 600 nM');

Query molecule follows.
Per the record, CCNC(=O)C(=O)CC[C@H](NC(=O)c1nc2ccccc2[nH]1)C(=O)Nc1cccn(CC(=O)NC2C3CC4CC(C3)CC2C4)c1=O (stereo partly drawn) has IC50 of < 150 nM

---

Assay: Log D by shake flask method (octanol / PBS pH 7.4, HPLC)
Assay type: physicochemical
Conditions: octanol / PBS pH 7.4, shake flask; read-out: logD
metric: logD

These solved cases illustrate the format of a correct answer.
INSERT INTO measurements (compound, result) VALUES
  ('CCNC(=O)C(=O)CC[C@H](NC(=O)c1cccnn1)C(=O)Nc1cccn(CC(=O)N[C@@H]2C[C@@H]3C=C[C@H]2C3)c1=O', '< 1'),
  ('CCNC(=O)C(=O)CC[C@H](NC(=O)c1snnc1C=O)C(=O)Nc1cccn(CC(=O)NC2C3CC4CC(C3)CC2C4)c1=O (stereo partly drawn)', '< 1');

CCNC(=O)C(=O)CC[C@H](NC(=O)c1cncn1C)C(=O)Nc1cccn(CC(=O)NC23CC4CC(C)(CC(C)(C4)C2)C3)c1=O has a reported logD of 1 to 3

---

Target: recombinant human transglutaminase 2 (Homo sapiens, UniProt P21980)
Experiment: Transglutaminase assay: incorporation of dansylcadaverine into dimethylcasein (DCC-assay)
Type: biochemical
Details: recombinant human TG2 10 nM, dansylcadaverine/dimethylcasein; read-out: IC50 TG2
Reported IC50 values are given for each entry in this list.

INSERT INTO results (molecule_smiles, target_or_system, result) VALUES
  ('CCNC(=O)C(=O)CC[C@H](NC(=O)c1cncn1C)C(=O)Nc1cccn(CC(=O)NC[C@@H]2CC[C@@H]3C[C@H]2C3(C)C)c1=O', 'recombinant human transglutaminase 2 (Homo sapiens, UniProt P21980)', '150 to 600 nM');

Here is the next item to consider.
Record CCNC(=O)C(=O)CC[C@H](NC(=O)c1c[nH]cn1)C(=O)Nc1cccn(CC(=O)NC23CC4CC(CC(C4)C2)C3)c1=O , field IC50: 600 to 3500 nM
